System: c-Src
protocol notes: phosphorylation enrichment, bacterial display (enrichment ratio); higher = better substrate or ligand; peptides without Tyr show the background;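 further: 11-residue human phosphosite peptides and single-mutation variants displayed on the E. coli surface, counted by deep sequencing, each peptide's frequency after selection divided by its frequency in the unselected input library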;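 further: frequency after pTyr selection over input frequency; kinase dosed for 20-30% of maximal phosphorylation in three min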
measured attribute: phosphorylation enrichment
Please state the value as a number alone, without comment.

## Task Tell me phosphorylation enrichment of VLRQVYVDFEG [KMT2B_Y1707_R1705Q] when tested on c-Src.
## Result 1.42

## Task Write down the reported phosphorylation enrichment (system: c-Src) of KDFNKYVAYIE [KDM4B_Y31]
## Result 0.364

## Task Answer briefly: phosphorylation enrichment recorded on c-Src for CIILLYIFLKN [STXBP1_Y411_R406C]
## Result 0.37

## Task Recall the reported phosphorylation enrichment of FEEDSYSHIMA [FDPS_Y388_YF] on c-Src and write it down.
## Result 0.721

## Task Lab note: record phosphorylation enrichment of FLGRNYLETLM [DUS3L_Y610_D609N_YF] tested on c-Src.
## Result 0.292

## Task For c-Src, give phosphorylation enrichment of the listed sequence: RSGIYYKPESL [L2HGDH_Y103_H98R]
## Result 2.6

## Task Output reported phosphorylation enrichment of the sequence RLDRSYSFSFS [PEAR1_Y890_YF] on c-Src.
## Result 0.575

## Task Fill in: phosphorylation enrichment on c-Src, entry RLEGVYRNNID [PTEN_Y46]
## Result 0.561

## Task Look up c-Src data: phosphorylation enrichment of FASALYGQRRS [FGF11_Y162_R163G_YF] , then report it.
## Result 0.641

## Task Write down the reported phosphorylation enrichment (system: c-Src) of SHMVDYQPYRK [TEX37_Y25]
## Result 0.673

## Task GET phosphorylation enrichment where system = c-Src and item = YSSLGYPLPEG [ZSWIM4_Y87_P89L]
## Result 1.57

## Task Give c-Src phosphorylation enrichment for the following sequence: LMIEEYLTKEP [BAG3_Y457_L462P]
## Result 1.49

## Task GET phosphorylation enrichment where system = c-Src and item = KTTILHKLKLG [ARF1_Y35_Y35H]
## Result 0.326

## Task Report phosphorylation enrichment from c-Src testing of GDFLSYREFHL [ERBIN_Y1107_S1112L_YF]
## Result 0.543

## Task State measured phosphorylation enrichment of the sequence VKMLPYTEVTR [GDI1_Y93_L92P] with c-Src.
## Result 0.4

## Task Name the value of phosphorylation enrichment reported for TLKDVCDDGKF [RPS6KA3_Y483_Y483C_YF] when tested on c-Src.
## Result 0.433

## Task // output phosphorylation enrichment; input SILTVYSKDNY [PANK2_Y400_A398T] ; system c-Src
## Result 0.538

## Task GET phosphorylation enrichment where system = c-Src and item = PLDGEYFILQI [TP53_Y327_T329I]
## Result 2.88

## Task State the measured phosphorylation enrichment (c-Src) of RALLNYIASKY [GSTA3_Y74_I71L]
## Result 0.381

## Task Param request: phosphorylation enrichment | system c-Src | item IWIFHYAKGQP [MPZ_Y82_S78W]
## Result 0.577

## Task Lab note: c-Src assay, enter phosphorylation enrichment for TLPAFYMGNFS [GLB1_Y552] here
## Result 0.523

## Task Give phosphorylation enrichment only, for ERDYTYEELLN [EIF2S2_Y176] , using c-Src data.
## Result 0.807

## Task Answer briefly: phosphorylation enrichment recorded on c-Src for FEREQYADRTR [RBM4_Y355_A359T_YF]
## Result 0.419

## Task Lab note: record phosphorylation enrichment of KHCEDYVCSYN [DSC1_Y846] tested on c-Src.
## Result 1.36

## Task Report measured phosphorylation enrichment on c-Src; entry: DYNPNYCFAGK [ALK_Y1096]
## Result 0.63

## Task Report phosphorylation enrichment on c-Src for this entry: VHHLVYHHHHH [CACNA1H_Y519]
## Result 0.602

## Task State recorded phosphorylation enrichment with c-Src, entry SSWPGYVRPLP [HSPB1_Y54] , no comment.
## Result 0.491

## Task Send back c-Src phosphorylation enrichment of RKGIRYLTSGL [PIGA_Y82] only.
## Result 0.648

## Task Give c-Src phosphorylation enrichment for the following sequence: KPLMPYMRYSR [SMARCE1_Y73]
## Result 0.52

## Task Specify the recorded phosphorylation enrichment for QGIFGYHHHMQ [UFSP2_Y287_Y290H_YF] , system: c-Src.
## Result 0.498

## Task GET phosphorylation enrichment | system: c-Src | item: HHTDEYEFDEL [TGM1_Y134_YF]
## Result 0.745

## Task Recall the reported phosphorylation enrichment of VGTKRYRAPEV [ACVRL1_Y375_M376R] on c-Src and write it down.
## Result 0.335

## Task Report phosphorylation enrichment from c-Src testing of GRVYVYRLSEQ [ITGAE_Y551]
## Result 0.725

###

tgt: Fes (UniProt P07332)
Sequence (P07332 whole entry, looked up): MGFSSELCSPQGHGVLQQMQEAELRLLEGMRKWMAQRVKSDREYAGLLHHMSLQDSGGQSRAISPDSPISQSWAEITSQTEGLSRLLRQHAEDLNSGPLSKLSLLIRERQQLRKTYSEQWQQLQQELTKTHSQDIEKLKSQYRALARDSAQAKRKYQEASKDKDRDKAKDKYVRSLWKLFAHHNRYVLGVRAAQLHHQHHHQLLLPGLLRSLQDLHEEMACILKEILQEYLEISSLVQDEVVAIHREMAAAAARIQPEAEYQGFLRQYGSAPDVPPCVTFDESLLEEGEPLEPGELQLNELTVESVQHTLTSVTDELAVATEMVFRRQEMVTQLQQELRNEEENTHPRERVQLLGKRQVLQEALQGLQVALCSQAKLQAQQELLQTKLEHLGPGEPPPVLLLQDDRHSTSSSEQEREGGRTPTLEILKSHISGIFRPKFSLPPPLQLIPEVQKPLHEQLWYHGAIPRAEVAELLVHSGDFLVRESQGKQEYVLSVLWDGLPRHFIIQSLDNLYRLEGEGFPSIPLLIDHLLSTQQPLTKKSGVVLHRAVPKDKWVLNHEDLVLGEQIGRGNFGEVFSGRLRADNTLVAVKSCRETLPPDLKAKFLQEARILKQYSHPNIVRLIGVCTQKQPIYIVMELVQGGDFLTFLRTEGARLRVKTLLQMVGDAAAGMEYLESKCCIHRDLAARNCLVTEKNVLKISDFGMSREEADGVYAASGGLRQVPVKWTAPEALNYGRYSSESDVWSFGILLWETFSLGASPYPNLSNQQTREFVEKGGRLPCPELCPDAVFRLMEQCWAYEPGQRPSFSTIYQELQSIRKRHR
protocol notes: phosphorylation enrichment, bacterial display (enrichment ratio); higher = better substrate or ligand; peptides without Tyr show the background
Record form. Attribute: phosphorylation enrichment. Fill in for each entry.
Enter a number only.

## Task Answer with the recorded phosphorylation enrichment for the sequence listed here: LFDHIYTTQSD [RET_Y928]
## Result 3.19

## Task # return recorded phosphorylation enrichment for input SLNEGYARDFD [FBP1_Y216]
## Result 0.94

## Task Return phosphorylation enrichment (reported value) for this sequence: DSFATYFRWVL [H2BW1_Y84_R87W]
## Result 1.47

## Task // fetch phosphorylation enrichment given entry GLRFGYGVLGG [KRTAP20-2_Y15_YF]
## Result 0.782

###

tgt: Jak2 (UniProt O60674)
Sequence (O60674 whole entry, looked up): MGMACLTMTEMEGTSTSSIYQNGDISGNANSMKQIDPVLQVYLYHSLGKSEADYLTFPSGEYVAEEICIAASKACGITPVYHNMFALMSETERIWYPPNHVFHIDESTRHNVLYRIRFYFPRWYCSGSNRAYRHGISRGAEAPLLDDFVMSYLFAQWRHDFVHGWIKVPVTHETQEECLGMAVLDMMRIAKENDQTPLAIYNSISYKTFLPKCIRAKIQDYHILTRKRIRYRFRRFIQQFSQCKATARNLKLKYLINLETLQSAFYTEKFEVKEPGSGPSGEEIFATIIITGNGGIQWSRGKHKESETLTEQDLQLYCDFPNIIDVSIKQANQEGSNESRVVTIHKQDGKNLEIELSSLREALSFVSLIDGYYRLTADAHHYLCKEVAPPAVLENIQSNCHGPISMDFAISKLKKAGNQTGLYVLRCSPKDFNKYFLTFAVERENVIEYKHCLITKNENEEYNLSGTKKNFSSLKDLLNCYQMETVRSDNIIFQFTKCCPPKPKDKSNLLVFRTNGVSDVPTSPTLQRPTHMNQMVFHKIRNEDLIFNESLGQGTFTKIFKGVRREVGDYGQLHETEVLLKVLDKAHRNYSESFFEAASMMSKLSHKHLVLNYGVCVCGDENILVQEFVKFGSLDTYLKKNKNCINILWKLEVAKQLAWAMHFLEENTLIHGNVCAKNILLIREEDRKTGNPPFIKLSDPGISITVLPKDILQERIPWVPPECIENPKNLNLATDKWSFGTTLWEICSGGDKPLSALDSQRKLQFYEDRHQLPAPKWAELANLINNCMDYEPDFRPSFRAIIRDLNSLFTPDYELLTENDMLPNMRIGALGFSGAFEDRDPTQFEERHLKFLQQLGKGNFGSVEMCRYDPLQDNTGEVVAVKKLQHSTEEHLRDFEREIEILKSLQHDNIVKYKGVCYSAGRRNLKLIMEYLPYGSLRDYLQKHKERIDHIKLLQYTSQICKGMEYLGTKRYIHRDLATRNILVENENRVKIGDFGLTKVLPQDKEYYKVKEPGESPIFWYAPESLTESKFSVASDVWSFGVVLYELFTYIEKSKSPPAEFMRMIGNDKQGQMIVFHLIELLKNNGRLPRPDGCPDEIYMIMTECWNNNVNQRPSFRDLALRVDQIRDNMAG
protocol notes: phosphorylation enrichment, bacterial display (enrichment ratio); higher = better substrate or ligand; peptides without Tyr show the background
Assignment: determine reported phosphorylation enrichment for the given sequences.
The reply should be a number, written without any unit.

## Task Indicate its recorded phosphorylation enrichment; the sequence in question is HNLDFYKMTTN [FGFR3_Y648_K650M_YF]
## Result 1.25

## Task Tell me measured phosphorylation enrichment for CSHKFYGKQCC [ADAMTS16_Y1211] please.
## Result 0.513

## Task Please look at this sequence and report its phosphorylation enrichment: APIEDYGGGGG [B4GALT6_Y382]
## Result 0.794

###

Test system: Fer (mouse)
protocol notes: phosphorylation enrichment, bacterial display (enrichment ratio); higher = better substrate or ligand; peptides without Tyr show the background
measured attribute: phosphorylation enrichment
Just the number, please.

## Task Provide measured phosphorylation enrichment value, entry: HPWPRYTTRAP [FNDC1_Y1281_Q1280R]
## Result 0.449

## Task // fetch phosphorylation enrichment given entry KKCTRYIDCAL [ASPA_Y64_D68A]
## Result 0.418

## Task In one line, give reported phosphorylation enrichment of the entry ARVDTYCRHNF [HLA-DRB1_Y107_A103R_YF] .
## Result 0.433

## Task Specify measured phosphorylation enrichment for TSYSGYRYHRH [NKAPL_Y94] .
## Result 0.418

###

tgt: EPHB2 (UniProt P29323)
Sequence (P29323 whole entry, looked up): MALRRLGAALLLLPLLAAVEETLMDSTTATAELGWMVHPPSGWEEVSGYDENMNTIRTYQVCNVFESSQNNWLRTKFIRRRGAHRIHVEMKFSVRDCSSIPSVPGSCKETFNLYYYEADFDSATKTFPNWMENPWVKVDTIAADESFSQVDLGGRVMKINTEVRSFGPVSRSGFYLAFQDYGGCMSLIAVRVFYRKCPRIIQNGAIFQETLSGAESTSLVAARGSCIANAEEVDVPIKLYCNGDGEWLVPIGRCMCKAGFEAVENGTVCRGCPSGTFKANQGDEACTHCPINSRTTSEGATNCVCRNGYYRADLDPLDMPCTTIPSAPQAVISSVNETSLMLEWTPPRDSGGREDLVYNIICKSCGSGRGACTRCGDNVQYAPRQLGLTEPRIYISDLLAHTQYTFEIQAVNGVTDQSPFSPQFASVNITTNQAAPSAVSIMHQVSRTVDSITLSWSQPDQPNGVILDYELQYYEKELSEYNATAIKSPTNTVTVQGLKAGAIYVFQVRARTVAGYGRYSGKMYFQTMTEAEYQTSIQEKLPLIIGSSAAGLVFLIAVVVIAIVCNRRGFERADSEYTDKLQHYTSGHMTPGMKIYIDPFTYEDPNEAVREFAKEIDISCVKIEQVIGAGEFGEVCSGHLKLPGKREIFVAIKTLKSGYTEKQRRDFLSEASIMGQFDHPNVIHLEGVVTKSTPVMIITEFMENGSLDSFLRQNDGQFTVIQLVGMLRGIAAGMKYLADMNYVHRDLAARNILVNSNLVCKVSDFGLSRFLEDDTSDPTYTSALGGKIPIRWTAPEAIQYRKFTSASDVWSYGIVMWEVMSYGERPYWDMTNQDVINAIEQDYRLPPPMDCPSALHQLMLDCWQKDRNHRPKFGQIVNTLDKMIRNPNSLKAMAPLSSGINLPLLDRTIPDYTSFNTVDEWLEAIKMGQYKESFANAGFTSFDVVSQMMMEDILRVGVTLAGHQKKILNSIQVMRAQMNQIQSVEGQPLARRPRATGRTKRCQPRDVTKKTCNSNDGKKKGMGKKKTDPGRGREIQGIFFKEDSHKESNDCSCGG
protocol notes: phosphorylation enrichment, bacterial display (enrichment ratio); higher = better substrate or ligand; peptides without Tyr show the background
Label fulfilled for high-side phosphorylation enrichment (at or above 0.8) and not fulfilled for low-side phosphorylation enrichment (below it).

## Task Decide: is the reported value of phosphorylation enrichment for TLLAFYMGNFS [GLB1_Y552_P549L] equal to or greater than 0.8?
## Result not fulfilled

## Task Is phosphorylation enrichment at least 0.8? Consider SLALFYRNVYH [RBL1_Y792_K794N]
## Result not fulfilled

## Task Form field: phosphorylation enrichment at least 0.8? Entry: EYFDGYWEYSV [ITGA2B_Y265_G267E]
## Result fulfilled

## Task Item PHRSIYFSSPK [MPG_Y75_Y71H] with phosphorylation enrichment of 0.8 or above?
## Result not fulfilled

## Task Given AAVDEYLEYRR [FAM221A_Y17] , state whether its phosphorylation enrichment is at least 0.8.
## Result not fulfilled

## Task Would you say RGDSAYHSQRH [ERBB3_Y1132] shows phosphorylation enrichment at minimum 0.8?
## Result not fulfilled

## Task Say whether IEEGTYGVVFR [CDK11B_Y449_YF] shows phosphorylation enrichment of 0.8 or more.
## Result fulfilled

## Task // inclusive: phosphorylation enrichment at least 0.8? input: AAAAMYTFLPD [MYORG_Y36]
## Result fulfilled

## Task Quick check, phosphorylation enrichment >= 0.8? FSNVLYRPRGA [TMIGD2_Y197_YF]
## Result not fulfilled

## Task Hello, I need to know if TETGRYEILTE has measured phosphorylation enrichment not below 0.8. Thanks!
## Result not fulfilled

## Task Decide: is the reported value of phosphorylation enrichment for KPSLKYVTYGN [GALNTL5_Y404_G401S] equal to or greater than 0.8?
## Result not fulfilled

## Task Could you tell me if the measured phosphorylation enrichment of ALTDNYMFLVI [HAGH_Y61_YF] reaches 0.8 or more?
## Result fulfilled

## Task Could you verify whether the entry AGITAYQSCLQ [ADGRA2_Y377] shows phosphorylation enrichment of no less than 0.8?
## Result not fulfilled

## Task Does the sequence GNLLIYTELGK [HGD_Y166_F169L] have recorded phosphorylation enrichment that is 0.8 or more?
## Result fulfilled

## Task Could you please find out whether GNKENYGLPQP [BUB1_Y538] has phosphorylation enrichment that meets 0.8 or exceeds it?
## Result not fulfilled

// data source = the supplement of paper PMC10065799
